// data source = the Human Domainome abundance scans (Beltran et al. 2025)

B1: Dystrobrevin alpha, residues 235 to 294; numbered along this chain, Q9Y4J8 (parent)
chain: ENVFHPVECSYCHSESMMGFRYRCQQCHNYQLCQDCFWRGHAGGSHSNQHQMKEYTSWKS

variants of: B1; experiment: abundance fitness (aPCA) (normalised: wild type 0, dead -1); higher = more abundant; growth selection in yeast, the domain comes from the species named; settings: Homo sapiens
Decision: abundance fitness >= -0.6 yields YES, all other cases yield NO.

Consider the worked cases shown below.
>>> discrete_label("ENVFHPVECSYVHSESMMGFRYRCQQCHNYQLCQDCFWRGHAGGSHSNQHQMKEYTSWKS [C12V]")
"NO"
>>> discrete_label("ENVFHPVECSYCHSESMMGFRYRQQQCHNYQLCQDCFWRGHAGGSHSNQHQMKEYTSWKS [C24Q]")
"YES"
>>> discrete_label("ENVFHPVECSYCTSESMMGFRYRCQQCHNYQLCQDCFWRGHAGGSHSNQHQMKEYTSWKS [H13T]")
"YES"
>>> discrete_label("ENVFHPVECSYCHSESMMGFRYRCQQCHNYQLCQDCFWRGHAGGSHSMQHQMKEYTSWKS [N48M]")
"YES"
>>> discrete_label("ENVFHPVECSYCHSESMMGFRYRCQQCHNYQLCQDCFWRGHAGGSHSNQHHMKEYTSWKS [Q51H]")
"YES"
>>> discrete_label("ENVFHPVECFYCHSESMMGFRYRCQQCHNYQLCQDCFWRGHAGGSHSNQHQMKEYTSWKS [S10F]")
"YES"
>>> discrete_label("ENVFHPVECSYCHSESMMGFRYRCQQCHNYQLCQDCFWRGHAGHSHSNQHQMKEYTSWKS [G44H]")
"NO"

Data request: Quick check: does ENVSHPVECSYCHSESMMGFRYRCQQCHNYQLCQDCFWRGHAGGSHSNQHQMKEYTSWKS [F4S] have abundance fitness greater than or equal to -0.6?
Data returned: YES
